Recorded inhibition zone (IZ) by entry
# Tested on: Pseudomonas aeruginosa (−ve)
# Experimental details: Disc diffusion, inhibition zone and activity index vs chloramphenicol
# Type: cell-based
# Particulars: disc diffusion
// note: answer is a bare numeric in mm

Examples with their reported inhibition zone (IZ) follow.
Oc1ccccc1N=Nc1c(O)ccc2ccccc12 [H2AZD, 1-(2-hydroxyphenylazo)-2-naphthol] : 8
O.O.O.c1ccc2c(c1)N=Nc1c(ccc3ccccc13)[O][Cu][O]2 : 13
O.O.[Cl][Fe]1[O]c2ccccc2N=Nc2c(ccc3ccccc23)[O]1 : 11

The reported inhibition zone (IZ) of the compound O.c1ccc2c(c1)N=Nc1c(ccc3ccccc13)[O][Ni][O]2 was 11

====

# Test system: Trichophyton rubrum
# Experimental details: Disc diffusion, inhibition zone and activity index vs chloramphenicol; further: test concentration or dose not given here
# Assay type: cell-based
# Particulars: disc diffusion
A collection of compounds and their measured inhibition zone (IZ)
Kindly provide the numeric value in mm only, without the unit symbol.

Oc1ccccc1N=Nc1c(O)ccc2ccccc12 [H2AZD, 1-(2-hydroxyphenylazo)-2-naphthol] : 7
O.O.O.c1ccc2c(c1)N=Nc1c(ccc3ccccc13)[O][Cu][O]2 [CuAZD] : 13
O.c1ccc2c(c1)N=Nc1c(ccc3ccccc13)[O][Ni][O]2 [NiAZD] : 10

# compound O.O.[Cl][Fe]1[O]c2ccccc2N=Nc2c(ccc3ccccc23)[O]1 [FeAZD] ; its inhibition zone (IZ) = 11

====

# System: Candida albicans
# Experimental details: Disc diffusion, inhibition zone and activity index vs chloramphenicol; further: test concentration or dose not given here
# Format: cell-based
# Particulars: disc diffusion
Measured property: inhibition zone (IZ) (mm)
I only need the number, in mm, no unit after it.

Oc1ccccc1N=Nc1c(O)ccc2ccccc12 [H2AZD, 1-(2-hydroxyphenylazo)-2-naphthol] : 8

Entry under test: O.O.[Cl][Fe]1[O]c2ccccc2N=Nc2c(ccc3ccccc23)[O]1 [FeAZD] . Its inhibition zone (IZ) was 12

Lab note: measured inhibition zone (IZ) of O.c1ccc2c(c1)N=Nc1c(ccc3ccccc13)[O][Ni][O]2 [NiAZD] was 11

The recorded inhibition zone (IZ) for O.O.O.c1ccc2c(c1)N=Nc1c(ccc3ccccc13)[O][Cu][O]2 [CuAZD] is 13

====

# Test system: Staphylococcus aureus (+ve)
# Experimental details: Disc diffusion, inhibition zone and activity index vs chloramphenicol; further: test concentration or dose not given here
# Format: cell-based
# Particulars: disc diffusion
Reported inhibition zone (IZ) values for a set of compounds
# value in mm; strip the unit string

O.O.[Cl][Fe]1[O]c2ccccc2N=Nc2c(ccc3ccccc23)[O]1 : 13
O.c1ccc2c(c1)N=Nc1c(ccc3ccccc13)[O][Ni][O]2 : 13
Oc1ccccc1N=Nc1c(O)ccc2ccccc12 [H2AZD, 1-(2-hydroxyphenylazo)-2-naphthol] : 9

The compound listed as O.O.O.c1ccc2c(c1)N=Nc1c(ccc3ccccc13)[O][Cu][O]2 shows inhibition zone (IZ) equal to 14

Data credit: patent US20250051383A1
